Cited source: ChEMBL document CHEMBL4411321

Reported Cmax values for a set of compounds
- Procedure Summary: Cmax in Sprague-Dawley rat at 9 to 10 mg/kg, po via gavage by LC-MS/MS analysis
- Assay type: ADME, organism-based
- Condition Summary: in vivo
Answer in nM, number only, no unit symbol.

Below, 2 compounds whose answers are already recorded.
Smiles Text	Reading Unit	Cmax
Cc1ccc(/C(=C(\CCCO)c2ccccc2)c2ccc(N3CCN(C(C)C)CC3)cc2)cc1.Cl.Cl	nM	160
CCN1CCN(c2ccc(/C(=C(/CCCO)c3ccccc3)c3ccc(C)cc3)cc2)CC1.Cl.Cl	nM	210

Let us move to another entry and its Cmax.
Entry `Cc1ccc(/C(=C(\CCCO)c2ccccc2)c2ccc(N3CCN(C)CC3)cc2)cc1.Cl.Cl` : reported Cmax = ?
80

----------
// endpoint IC50 / system Voltage-gated inwardly rectifying potassium channel KCNH2 (Homo sapiens, UniProt Q12809)
Value expressed in µM; do not type the unit.

Smiles Text	Reading Unit	IC50
Cc1ccc(/C(=C(\CCCO)c2ccccc2)c2ccc(N3CCN(C)CC3)cc2)cc1.Cl.Cl	µM	18.9

Which measured IC50 value corresponds to `CC(C)N1CCN(c2ccc(/C(=C(/CCCO)c3ccccc3)c3ccc(O)cc3)cc2)CC1.Cl.Cl` ?
18.7

----------
- Procedure Summary: in vivo
- Condition Summary: Sprague-Dawley, rat, iv, 1 mg/kg
In this section, each of the compounds is paired with its reported AUC.
Form entry: enter the amount, then its unit.

Illustrative cases are given below, each with its answer.
Smiles Text	Test Readout	Result
CCN1CCN(c2ccc(/C(=C(/CCCO)c3ccccc3)c3ccc(C)cc3)cc2)CC1.Cl.Cl	AUC	0.55 µM·h
CC(C)N1CCN(c2ccc(/C(=C(/CCCO)c3ccccc3)c3cccc(O)c3)cc2)CC1.Cl.Cl	AUC	0.99 µM·h
Cc1ccc(/C(=C(\CCCO)c2ccccc2)c2ccc(N3CCN(C(C)C)CC3)cc2)cc1.Cl.Cl	AUC	0.58 µM·h

// next entry
Need AUC, item `Cc1ccc(/C(=C(\CCCO)c2ccccc2)c2ccc(N3CCN(C)CC3)cc2)cc1.Cl.Cl`
0.28 µM·h

----------
- Target Desc: CYP3A4 (Homo sapiens, UniProt P08684)
- Sequence (P08684 whole entry): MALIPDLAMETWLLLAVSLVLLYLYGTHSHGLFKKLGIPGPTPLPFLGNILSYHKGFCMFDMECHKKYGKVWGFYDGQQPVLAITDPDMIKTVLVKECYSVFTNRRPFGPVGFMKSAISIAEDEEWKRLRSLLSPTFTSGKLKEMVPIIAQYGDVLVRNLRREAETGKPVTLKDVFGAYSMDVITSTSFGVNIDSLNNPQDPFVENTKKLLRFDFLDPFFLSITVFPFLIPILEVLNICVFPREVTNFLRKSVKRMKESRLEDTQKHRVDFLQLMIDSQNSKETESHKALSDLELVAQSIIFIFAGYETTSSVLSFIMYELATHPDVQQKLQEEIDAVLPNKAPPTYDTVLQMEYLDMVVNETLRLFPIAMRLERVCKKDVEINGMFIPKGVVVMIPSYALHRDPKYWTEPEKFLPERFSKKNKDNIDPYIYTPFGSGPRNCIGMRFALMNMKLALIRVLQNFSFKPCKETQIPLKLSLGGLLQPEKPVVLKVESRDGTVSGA
- Procedure Summary: Inhibition of CYP3A4 in human liver microsomes assessed as reduction in midazolam 1-hydroxylase activity at 10 uM preincubated for 5 mins followed by NADPH addition and measured after 15 mins by LC-MS/MS analysis relative to control
- Format: ADME
- Condition Summary: probe midazolam (1-hydroxylation)
Binary classification by inhibition at 0.25 h, 10 µM, with 40% as an inclusive lower bound for TRUE; all other cases are FALSE.

Please review the entries below; each comes with its answer.
Smiles Text	Target Desc	Assigned Class
OCCC/C(=C(\c1ccc(Br)cc1)c1ccc(N2CCNCC2)cc1)c1ccccc1	CYP3A4 (Homo sapiens, UniProt P08684)	TRUE
CC(C)N1CCN(c2ccc(/C(=C(/CCCO)c3ccccc3)c3cccc(Br)c3)cc2)CC1	CYP3A4 (Homo sapiens, UniProt P08684)	TRUE
CC(C)N1CCN(c2ccc(/C(=C(/CCCO)c3ccccc3)c3cccc(O)c3)cc2)CC1.Cl.Cl	CYP3A4 (Homo sapiens, UniProt P08684)	TRUE
Cc1ccc(/C(=C(\CCCO)c2ccccc2)c2ccc(N3CCN(C)CC3)cc2)cc1.Cl.Cl	CYP3A4 (Homo sapiens, UniProt P08684)	FALSE

Could you now look at the following molecule, please?
Textbook exercise: given the entry `CC(C)N1CCN(c2ccc(/C(=C(/CCCO)c3ccccc3)c3ccc(Br)cc3)cc2)CC1.Cl.Cl` , state whether its inhibition at 0.25 h, 10 µM is greater than or equal to 40%.
FALSE

----------
- Procedure Summary: in vivo
- Condition Summary: Sprague-Dawley, rat, plasma, iv, 1 mg/kg
Test Readout: clearance (mL/min/kg)
Use mL/min/kg as the unit, but write only the number.

Param item = `Cc1ccc(/C(=C(\CCCO)c2ccccc2)c2ccc(N3CCN(C)CC3)cc2)cc1.Cl.Cl` ; retrieve measured clearance.
139

Consider next the compound `Cc1ccc(/C(=C(\CCCO)c2ccccc2)c2ccc(N3CCN(C(C)C)CC3)cc2)cc1.Cl.Cl` in the same way.
58

Try this compound next: `CN(C)CCOc1ccc(/C(=C(/CCCO)c2ccccc2)c2ccc(O)cc2)cc1.Cl`
44

Would you kindly repeat that for `CCN1CCN(c2ccc(/C(=C(/CCCO)c3ccccc3)c3ccc(C)cc3)cc2)CC1.Cl.Cl` ?
59

----------
- Procedure Summary: in vivo
- Condition Summary: Sprague-Dawley, rat, iv, 1 mg/kg
- Description: Volume of distribution at steady state in Sprague-Dawley rat at 1 mg/kg, iv by LC-MS/MS analysis
Vd listing for selected molecules.
Lab book: enter the figure in L/kg, no units written.

Please give the measured Vd for this molecule: `Cc1ccc(/C(=C(\CCCO)c2ccccc2)c2ccc(N3CCN(C(C)C)CC3)cc2)cc1.Cl.Cl`
9.8

Can you handle `Cc1ccc(/C(=C(\CCCO)c2ccccc2)c2ccc(N3CCN(C)CC3)cc2)cc1.Cl.Cl` next?
30.3

Another: `CN(C)CCOc1ccc(/C(=C(/CCCO)c2ccccc2)c2ccc(O)cc2)cc1.Cl`
16.8

And `CCN1CCN(c2ccc(/C(=C(/CCCO)c3ccccc3)c3ccc(C)cc3)cc2)CC1.Cl.Cl` ?
9.8

----------
- Procedure Summary: AUC (0 to infinity) in Sprague-Dawley rat at 9 to 10 mg/kg, po via gavage by LC-MS/MS analysis
- Format: ADME, organism-based
- Condition Summary: in vivo
Test Readout: AUC(0-inf)
Answers without a unit are incomplete; give the number and then its unit.

Smiles Text	AUC(0-inf)
Cc1ccc(/C(=C(\CCCO)c2ccccc2)c2ccc(N3CCN(C)CC3)cc2)cc1.Cl.Cl	0.66 µM·h
CC(C)N1CCN(c2ccc(/C(=C(/CCCO)c3ccccc3)c3cccc(O)c3)cc2)CC1.Cl.Cl	4.71 µM·h

For the molecule `Cc1ccc(/C(=C(\CCCO)c2ccccc2)c2ccc(N3CCN(C(C)C)CC3)cc2)cc1.Cl.Cl` , what AUC(0-inf) is on record?
1.41 µM·h

Quick one: `CCN1CCN(c2ccc(/C(=C(/CCCO)c3ccccc3)c3ccc(C)cc3)cc2)CC1.Cl.Cl`
1.61 µM·h

----------
- Target Desc: Estrogen-related receptor gamma (Homo sapiens, UniProt P62508)
- Sequence (P62508 whole entry): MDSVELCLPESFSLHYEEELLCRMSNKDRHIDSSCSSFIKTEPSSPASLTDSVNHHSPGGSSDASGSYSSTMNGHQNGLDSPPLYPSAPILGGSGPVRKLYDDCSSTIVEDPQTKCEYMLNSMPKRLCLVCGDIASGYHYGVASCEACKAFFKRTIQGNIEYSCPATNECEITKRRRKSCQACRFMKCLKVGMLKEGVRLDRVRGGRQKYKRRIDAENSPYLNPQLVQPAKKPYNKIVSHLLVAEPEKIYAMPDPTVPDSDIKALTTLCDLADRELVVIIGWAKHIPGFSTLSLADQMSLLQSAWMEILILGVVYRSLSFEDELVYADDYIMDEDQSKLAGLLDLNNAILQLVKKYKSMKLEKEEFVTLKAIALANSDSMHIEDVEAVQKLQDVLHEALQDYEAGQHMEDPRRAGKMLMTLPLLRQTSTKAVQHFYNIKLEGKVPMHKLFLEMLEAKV
Test Readout: IC50 (nM)
Numbers only here, please. The scale is nM.

Record request: IC50 value, item `CCN1CCN(c2ccc(/C(=C(/CCCO)c3ccccc3)c3ccc(C)cc3)cc2)CC1.Cl.Cl`
18

----------
- Procedure Summary: Tmax in Sprague-Dawley rat at 9 to 10 mg/kg, po via gavage by LC-MS/MS analysis
- Type: ADME, organism-based
- Condition Summary: in vivo
Test Readout: Tmax (h)
Reply numerically in h, unit not repeated.

Sample records with Tmax:
Smiles Text	Tmax [h]
Cc1ccc(/C(=C(\CCCO)c2ccccc2)c2ccc(N3CCN(C(C)C)CC3)cc2)cc1.Cl.Cl	4
CC(C)N1CCN(c2ccc(/C(=C(/CCCO)c3ccccc3)c3cccc(O)c3)cc2)CC1.Cl.Cl	1.7

Please report the recorded Tmax for `CCN1CCN(c2ccc(/C(=C(/CCCO)c3ccccc3)c3ccc(C)cc3)cc2)CC1.Cl.Cl` .
3

Quick one: `Cc1ccc(/C(=C(\CCCO)c2ccccc2)c2ccc(N3CCN(C)CC3)cc2)cc1.Cl.Cl`
2.8

----------
- Target Desc: CYP2C9 (Homo sapiens)
- Sequence (P11712 whole entry): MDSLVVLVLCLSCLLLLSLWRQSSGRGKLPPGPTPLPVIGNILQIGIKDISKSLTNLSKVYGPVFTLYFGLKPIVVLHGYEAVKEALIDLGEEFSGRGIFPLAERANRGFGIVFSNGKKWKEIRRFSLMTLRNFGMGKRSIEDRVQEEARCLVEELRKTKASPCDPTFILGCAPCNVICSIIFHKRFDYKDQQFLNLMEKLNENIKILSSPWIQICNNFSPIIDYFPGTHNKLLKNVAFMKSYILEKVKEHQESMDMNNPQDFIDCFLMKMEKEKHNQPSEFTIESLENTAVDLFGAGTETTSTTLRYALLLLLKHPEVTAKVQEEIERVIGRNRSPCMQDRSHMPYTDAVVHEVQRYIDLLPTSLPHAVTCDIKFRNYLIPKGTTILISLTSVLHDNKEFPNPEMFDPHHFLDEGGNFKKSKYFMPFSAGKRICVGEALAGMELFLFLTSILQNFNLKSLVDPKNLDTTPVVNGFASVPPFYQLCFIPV
- Procedure Summary: Inhibition of CYP2C9 in human liver microsomes assessed as reduction in tolbutamide 4-hydroxylase activity at 10 uM preincubated for 5 mins followed by NADPH addition and measured after 15 mins by LC-MS/MS analysis relative to control
- Assay type: ADME
- Condition Summary: probe tolbutamide (4-hydroxylation)
The following molecules are listed with their measured inhibition at 0.25 h, 10 µM values.
Entry rule: numbers only, all in %.

// solved cases for inhibition at 0.25 h, 10 µM follow
Smiles Text	inhibition at 0.25 h, 10 µM [%]
Cc1ccc(/C(=C(\CCCO)c2ccccc2)c2ccc(N3CCN(C)CC3)cc2)cc1.Cl.Cl	37.7
CC(C)N1CCN(c2ccc(/C(=C(/CCCO)c3ccccc3)c3cccc(O)c3)cc2)CC1.Cl.Cl	24.1
CC(C)N1CCN(c2ccc(/C(=C(/CCCO)c3ccccc3)c3ccc(O)cc3)cc2)CC1.Cl.Cl	13.9
CCN1CCN(c2ccc(/C(=C(/CCCO)c3ccccc3)c3ccc(C)cc3)cc2)CC1.Cl.Cl	13
CC(C)N1CCN(c2ccc(/C(=C(/CCCO)c3ccccc3)c3cccc(Br)c3)cc2)CC1	27
CC(C)N1CCN(c2ccc(/C(=C(/CCCO)c3ccccc3)c3ccc(Br)cc3)cc2)CC1.Cl.Cl	3.1
OCCC/C(=C(\c1ccc(Br)cc1)c1ccc(N2CCNCC2)cc1)c1ccccc1	24
Cc1ccc(/C(=C(\CCCO)c2ccccc2)c2ccc(N3CCNCC3)cc2)cc1.Cl.Cl	39.3

Next molecule, please.
Which inhibition at 0.25 h, 10 µM is reported with CYP2C9 (Homo sapiens) for this entry: `Cc1ccc(/C(=C(\CCCO)c2ccccc2)c2ccc(N3CCN(C(C)C)CC3)cc2)cc1.Cl.Cl` ?
26.6
